A collection of molecules and their measured IC50
Test system: HepG2 cell line
Experiment: Cytotoxic activity against human tumor cells line (HepG2)
Type: cell-based

{"molecule": "C=C1CC(c2ccc(O)cc2)OC1=O (stereo not drawn)", "IC50": "23.3 µM"}
{"molecule": "C=C1CC(c2cccc(OC(=O)C=Cc3ccccc3)c2)OC1=O (stereo not drawn)", "IC50": "15.7 µM"}
{"molecule": "C=C1CC(c2ccc(OC(=O)c3cccc(C#N)c3)cc2)OC1=O (stereo not drawn)", "IC50": "18.3 µM"}
{"molecule": "C=C1CC(c2cccc(OC(=O)c3ccc(OC)cc3)c2)OC1=O (stereo not drawn)", "IC50": "58.6 µM"}
{"molecule": "C=C1CC(c2ccccc2OC(=O)CCC)OC1=O (stereo not drawn)", "IC50": "23.8 µM"}
{"molecule": "C=C1CC(c2ccccc2OC(=O)c2cccc(Br)c2)OC1=O (stereo not drawn)", "IC50": "35.6 µM"}
{"molecule": "C=C1CC(c2cccc(OC(=O)c3cccc(Br)c3)c2)OC1=O (stereo not drawn)", "IC50": "20.9 µM"}
{"molecule": "C=C1CC(c2cccc(OC(=O)c3ccccc3)c2)OC1=O (stereo not drawn)", "IC50": "18.5 µM"}
{"molecule": "C=C1CC(c2ccc(OC(=O)c3cccc(Cl)c3)cc2)OC1=O (stereo not drawn)", "IC50": "22.4 µM"}
{"molecule": "C=C1CC(c2cccc(OC(=O)c3cccc(Cl)c3)c2)OC1=O (stereo not drawn)", "IC50": "30.2 µM"}
{"molecule": "C=C1CC(c2ccccc2OCCC)OC1=O (stereo not drawn)", "IC50": "> 132 µM"}
{"molecule": "C=C1CC(c2ccc(OC(=O)c3cccc(Br)c3)cc2)OC1=O (stereo not drawn)", "IC50": "21.7 µM"}
{"molecule": "C=C1CC(c2ccc(OC(=O)c3ccc(OC)cc3)cc2)OC1=O (stereo not drawn)", "IC50": "25 µM"}
{"molecule": "C=C1CC(c2ccc(OC(=O)c3cccc(C)c3)cc2)OC1=O (stereo not drawn)", "IC50": "28.5 µM"}
{"molecule": "C=C1CC(c2cccc(O)c2)OC1=O (stereo not drawn)", "IC50": "17.9 µM"}
{"molecule": "C=C1CC(c2cccc(OCCCC)c2)OC1=O (stereo not drawn)", "IC50": "> 108 µM"}
{"molecule": "C=C1CC(c2ccccc2OC(=O)c2cccc(OC)c2)OC1=O (stereo not drawn)", "IC50": "29 µM"}
{"molecule": "C=C1CC(c2ccccc2OC(=O)c2cccc(C)c2)OC1=O (stereo not drawn)", "IC50": "85.2 µM"}
{"molecule": "C=C1CC(c2ccc(OC(=O)CC)cc2)OC1=O (stereo not drawn)", "IC50": "19.5 µM"}
{"molecule": "C=C1CC(c2cccc(OC(=O)c3ccccc3C)c2)OC1=O (stereo not drawn)", "IC50": "22 µM"}
{"molecule": "C=C1CC(c2ccccc2OC(=O)c2cccc(Cl)c2)OC1=O (stereo not drawn)", "IC50": "28.4 µM"}

----------
Test system: C. lagenarium
Assay: Spore germination assay, fungicidal activity against C. lagenarium
Type: cell-based, Colletotrichum lagenarium
Conditions: Colletotrichum orbiculare; Table 2; fungicidal activity against C. lagenarium used for QSAR; read-out: pIC50 (converted)
A collection of compounds and their measured IC50

{"compound": "C=C1CC(c2ccccc2OCCC)OC1=O (stereo not shown)", "tgt": "C. lagenarium", "IC50": "499 µM"}
{"compound": "C=C1CC(c2ccc(OC(=O)c3cccc(Br)c3)cc2)OC1=O (stereo not shown)", "tgt": "C. lagenarium", "IC50": "8.77 µM"}
{"compound": "C=C1CC(c2ccc(OC(=O)c3ccccc3)cc2)OC1=O (stereo not shown)", "tgt": "C. lagenarium", "IC50": "95.3 µM"}
{"compound": "C=C1CC(c2ccc(OC(=O)c3cccc(OC)c3)cc2)OC1=O (stereo not shown)", "tgt": "C. lagenarium", "IC50": "212 µM"}
{"compound": "C=C1CC(c2ccccc2OC(=O)c2ccccc2Br)OC1=O (stereo not shown)", "tgt": "C. lagenarium", "IC50": "15.9 µM"}
{"compound": "C=C1CC(c2ccccc2OC(=O)c2ccc(Cl)cc2)OC1=O (stereo not shown)", "tgt": "C. lagenarium", "IC50": "17.7 µM"}
{"compound": "C=C1CC(c2cccc(OC(=O)c3ccccc3)c2)OC1=O (stereo not shown)", "tgt": "C. lagenarium", "IC50": "73.1 µM"}
{"compound": "C=C1CC(c2ccccc2OC(=O)c2cccc(Br)c2)OC1=O (stereo not shown)", "tgt": "C. lagenarium", "IC50": "13.4 µM"}
{"compound": "C=C1CC(c2ccccc2OC(=O)c2ccccc2C)OC1=O (stereo not shown)", "tgt": "C. lagenarium", "IC50": "216 µM"}
{"compound": "C=C1CC(c2ccccc2OC(=O)CCC)OC1=O (stereo not shown)", "tgt": "C. lagenarium", "IC50": "174 µM"}

----------
System: C. lagenarium
Assay: Spore germination assay, fungicidal activity against C. lagenarium
Type: cell-based, Colletotrichum lagenarium
Details: Colletotrichum orbiculare; Table 2; fungicidal activity against C. lagenarium used for QSAR; read-out: pIC50 (converted)
Checkbox rule: IC50 lower than 200 µM = true (1); IC50 not lower than 200 µM = false (0).

{"compound": "C=C1CC(c2ccccc2OC(=O)c2cccc(Cl)c2)OC1=O (centres unmarked)", "tgt": "C. lagenarium", "className": "true (1)"}
{"compound": "C=C1CC(c2ccc(OC(=O)c3ccc(OC)cc3)cc2)OC1=O (centres unmarked)", "tgt": "C. lagenarium", "className": "false (0)"}
{"compound": "C=C1CC(c2ccc(OC(=O)c3cccc(C#N)c3)cc2)OC1=O (centres unmarked)", "tgt": "C. lagenarium", "className": "true (1)"}
{"compound": "C=C1CC(c2ccc(OC(=O)c3ccc(C)cc3)cc2)OC1=O (centres unmarked)", "tgt": "C. lagenarium", "className": "true (1)"}
{"compound": "C=C1CC(c2ccccc2OC(=O)c2ccc(C#N)cc2)OC1=O (centres unmarked)", "tgt": "C. lagenarium", "className": "true (1)"}

----------
A collection of molecules and their measured melting point

{"molecule": "C=C1CC(c2cccc(O)c2)OC1=O (centres unmarked)", "melting point": "78 to 79 °C"}
{"molecule": "C=C1CC(c2ccc(OC(=O)c3ccccc3C)cc2)OC1=O (centres unmarked)", "melting point": "189.6 to 190.1 °C"}
{"molecule": "C=C1CC(c2cccc(OC(=O)c3cccc(Cl)c3)c2)OC1=O (centres unmarked)", "melting point": "205.7 to 206.4 °C"}
{"molecule": "C=C1CC(c2ccccc2OC(=O)c2cccc(Cl)c2)OC1=O (centres unmarked)", "melting point": "201.3 to 201.8 °C"}
{"molecule": "C=C1CC(c2ccccc2OC(=O)c2ccccc2Br)OC1=O (centres unmarked)", "melting point": "204.6 to 205.1 °C"}
{"molecule": "C=C1CC(c2ccc(OC(=O)c3cccc(Cl)c3)cc2)OC1=O (centres unmarked)", "melting point": "168.8 to 169.2 °C"}
{"molecule": "C=C1CC(c2ccc(OC(=O)c3cccc(C)c3)cc2)OC1=O (centres unmarked)", "melting point": "186.2 to 186.6 °C"}
{"molecule": "C=C1CC(c2ccccc2OC(=O)c2ccccc2C)OC1=O (centres unmarked)", "melting point": "172.8 to 173.4 °C"}
{"molecule": "C=C1CC(c2cccc(OC(=O)c3ccc(OC)cc3)c2)OC1=O (centres unmarked)", "melting point": "182.6 to 183.3 °C"}
{"molecule": "C=C1CC(c2cccc(OC(=O)c3cccc(OC)c3)c2)OC1=O (centres unmarked)", "melting point": "183.7 to 184.2 °C"}
{"molecule": "C=C1CC(c2ccc(OC(=O)c3ccc(Cl)cc3)cc2)OC1=O (centres unmarked)", "melting point": "171.3 to 171.6 °C"}
{"molecule": "C=C1CC(c2cccc(OC(=O)c3ccccc3C)c2)OC1=O (centres unmarked)", "melting point": "178.3 to 178.9 °C"}
{"molecule": "C=C1CC(c2cccc(OC(=O)c3ccccc3OC)c2)OC1=O (centres unmarked)", "melting point": "172.3 to 172.8 °C"}
{"molecule": "C=C1CC(c2cccc(OC(=O)c3cccc(C)c3)c2)OC1=O (centres unmarked)", "melting point": "177.6 to 178.2 °C"}
{"molecule": "C=C1CC(c2ccc(OC(=O)c3ccccc3Br)cc2)OC1=O (centres unmarked)", "melting point": "174.5 to 174.9 °C"}
{"molecule": "C=C1CC(c2ccc(OC(=O)c3ccc(Br)cc3)cc2)OC1=O (centres unmarked)", "melting point": "175.1 to 175.6 °C"}
{"molecule": "C=C1CC(c2ccccc2OC(=O)c2ccc(Br)cc2)OC1=O (centres unmarked)", "melting point": "184.7 to 185.2 °C"}
{"molecule": "C=C1CC(c2ccccc2OC(=O)c2cccc(Br)c2)OC1=O (centres unmarked)", "melting point": "189.7 to 190.4 °C"}
{"molecule": "C=C1CC(c2cccc(OC(=O)c3ccc(Br)cc3)c2)OC1=O (centres unmarked)", "melting point": "168.6 to 169.4 °C"}
{"molecule": "C=C1CC(c2cccc(OC(=O)c3cccc(Br)c3)c2)OC1=O (centres unmarked)", "melting point": "178.6 to 178.9 °C"}
